Origin of measurements: patent US12649733B2

- System: H146 cells
- assay-procedure: H146 cell viability, MTT assay
- Format: cell-based
- measurement-conditions: Homo sapiens, NCI-H146, 48 h, 48 h exposure
- Experimental: MTT colorimetric assay is based on the mitochondrial reduction of tetrazolium salt by living cells. The viable cell number is proportional to the production of formazan salts, which can be read spectrophotometrically at 540 nm. MOLT-4 and H146 cells were purchased from ATCC and cultivated in RPMI 1640 supplemented with 10% heat inactivated fetal bovine serum, penicillin (100 IU/ml), streptomycin (100 μg/ml) and L-glutamine (2 mM). […] IC50s were calculated using standard four-parametric curve fitting.
pIC50: −log10 of the molar value.
property-name: pIC50

compound	property-name	qual	reading
CCN(c1cc(C)c(Nc2nc3ccccc3s2)nn1)c1nc(C(=O)O)cs1	pIC50	=	4.96
Cc1cc(N(C)c2nc(C(=O)O)c(CC(C)COc3ccc(C#CCN(C)C)cc3F)s2)nnc1Nc1nc2ccccc2s1 (stereo not shown)	pIC50	=	7.72
CNCC#Cc1ccc(OCCCc2sc(N(CCC(O)COC)c3cc(C)c(Nc4nc5ccccc5s4)nn3)nc2C(=O)O)c(F)c1 (stereo not shown)	pIC50	=	8.20
Cc1cc(N(C)c2nc(C(=O)[O-])c(CCCOc3ccc(C#CCNCC[N+](C)(C)C)cc3F)s2)nnc1Nc1nc2ccccc2s1	pIC50	=	7.49
COCCCN(c1cc(C)c(Nc2nc3ccccc3s2)nn1)c1nc(C(=O)O)c(CCCOc2ccccc2)s1	pIC50	=	6.06
Cc1cc(N(C)c2nc(C(=O)O)c(CCCOc3ccccc3)s2)nnc1Nc1nc2ccccc2s1	pIC50	=	6.69
Cc1cc(N(C)c2nc(C(=O)O)c(C3CCCCC3)s2)nnc1Nc1nc2ccccc2s1	pIC50	<	4.82
Cc1cc(N(CCCC(O)C[N+]2(C)CCN(C)CC2)c2nc(C(=O)[O-])c(CCCOc3ccc(C#CCN(C)C)cc3F)s2)nnc1Nc1nc2ccccc2s1 (stereo not shown)	pIC50	=	7.03
Cc1c(Nc2nc(C(=O)O)c(CCCOc3ccc(C(=O)N(C)C)cc3F)s2)nnc(Nc2nc3ccccc3s2)c1C	pIC50	=	5.68
Cc1cc(N(CCCCCN)c2nc(C(=O)O)c(CCCOc3ccc(C#CCN(C)C)cc3F)s2)nnc1Nc1nc2ccccc2s1	pIC50	=	7.08
Cc1c(Nc2nc(C(=O)O)c(CCCOc3ccccc3F)s2)nnc(Nc2nc3ccccc3s2)c1C	pIC50	=	6.53
Cc1c(Nc2nc3ccccc3s2)nnc(N(C)c2nc(C(=O)O)cs2)c1C	pIC50	<	4.82
Cc1c(Nc2nc(C(=O)O)cs2)nnc(Nc2nc3ccccc3s2)c1C(C)C	pIC50	=	5.08
Cc1cc(N(C)c2nc(C(=O)O)c(CCCOc3ccc(C#CCN(C)C)cc3)s2)nnc1Nc1nc2ccccc2s1	pIC50	=	8.59
COCCCc1sc(Nc2nnc(Nc3nc4ccccc4s3)c(C)c2C)nc1C(=O)O	pIC50	=	6.04
CCc1c(Nc2nc3ccccc3s2)nnc(Nc2nc(C(=O)O)cs2)c1C	pIC50	=	5.09
Cc1c(Nc2nc(C(=O)O)cs2)nnc(Nc2nc3cc(F)ccc3s2)c1C	pIC50	<	4.82
CCOCc1c(Nc2nc(C(=O)O)cs2)nnc(Nc2nc3ccccc3s2)c1C	pIC50	<	4.82
Cc1c(Nc2nc3ccccc3s2)nnc(Nc2nc(C(=O)O)cs2)c1C(C)C	pIC50	=	4.98
Cc1cc(N(CCCCCN(C)C2CCNCC2)c2nc(C(=O)O)c(CCCOc3ccc(C#CCN(C)C)cc3F)s2)nnc1Nc1nc2ccccc2s1	pIC50	=	6.68
Cc1cc(N(C)c2nc(C(=O)O)c(C3CCN(C(=O)c4ccccc4)CC3)s2)nnc1Nc1nc2ccccc2s1	pIC50	<	4.82
Cc1cc(N(CCCC(O)CN(C)CCN(C)C)c2nc(C(=O)O)c(CCCOc3ccc(C#CCN(C)C)cc3F)s2)nnc1Nc1nc2ccccc2s1 (stereo not shown)	pIC50	=	7.30
CNCC#Cc1ccc(OCCCc2sc(N(CCCC(CO)OC)c3cc(C)c(Nc4nc5ccccc5s4)nn3)nc2C(=O)O)c(F)c1 (stereo not shown)	pIC50	=	7.51
CNCC#Cc1cc(F)c(OCCCc2sc(N(C)c3cc(C)c(Nc4nc5ccccc5s4)nn3)nc2C(=O)O)cn1	pIC50	=	7.36
Cc1cc(N(CCCC(O)C[N+](C)(C)CCCS(=O)(=O)[O-])c2nc(C(=O)O)c(CCCOc3ccc(/C=C/C=O)cc3F)s2)nnc1Nc1nc2ccccc2s1 (stereo not shown)	pIC50	<	4.52
